compound | melting point
COc1ccc(-c2cc(-c3cccc(C(=O)O)c3)on2)cc1 | 246 to 247 °C
CN(C)C(=O)c1ccc(-c2nnc(-c3cccc(C(=O)O)c3)o2)cc1 | 228 to 235 °C
O=C(O)c1ccc(-c2ncc(-c3ccc(Br)cc3)o2)cc1 | 259 to 261 °C
CC(C)(C)c1ccc(-c2nc(-c3ccc(C(=O)O)cc3)no2)cc1 | 237 to 239 °C
O=C(O)c1cccc(-c2nc(-c3cccs3)n[nH]2)c1 | 282 to 285 °C
O=C(O)c1cccc(-c2ncc(-c3ccc(C(F)(F)F)cc3)o2)c1 | 223.5 to 225 °C
O=C(O)c1cccc(-c2noc(-c3ccccc3)c2C=NO)c1 | 198 to 202 °C
CC(C)c1cccc(-c2nnc(-c3cccc(C(=O)O)c3)o2)c1 | 190 to 192 °C
O=C(O)c1ccc(-c2cc(-c3ccc(Cl)cc3)no2)cc1 | 320.5 to 322.5 °C
CC(C)c1ccc(-c2nnc(-c3cccc(C(=O)[O-])c3)o2)cc1.[Na+] | 200 to 205 °C (dec.)
O=C(O)c1cccc(-c2ncc(-c3ccc(F)cc3)o2)c1 | 255 to 256 °C
O=C(O)c1ccc(-c2ncc(-c3ccc(F)c(Cl)c3)o2)cc1 | 295 to 297 °C
O=C(O)c1ccc(-c2ncc(-c3cccc(O)c3)o2)cc1 | 291 to 292 °C
O=C(O)c1cccc(-c2cc(-c3ccc(F)cc3F)on2)c1 | 260 to 262 °C
O=C(O)c1cccc(-c2cc(-c3ccc(C(F)(F)F)cc3)on2)c1 | 281 to 282 °C
CN(C)c1ccccc1-c1nnc(-c2cccc(C(=O)O)c2)o1 | 170 to 172 °C
O=C(O)c1cccc(-c2nc(-c3ccc(F)cc3)n[nH]2)c1 | > 310 °C
COC(=O)c1cccc(-c2cc(-c3ccccc3F)on2)c1 | 112 to 113.5 °C
O=C(O)c1cccc(-c2cc(-c3ccc(CO)cc3)on2)c1 | 248 to 250 °C
